Test: Half-life period was evaluated in rat, after administering 1 mg/kg intravenously
Assay type: ADME, organism-based
Set-up: dose 1 mg/kg, route intravenous
Conditions: in vivo, iv
quantity_measured: half-life

**Q:** Which half-life value is on record for CN(C[C@@H](CCN1CCC2(CC1)C[S+]([O-])c1ccccc12)c1cccc(Cl)c1)S(=O)(=O)c1ccccc1 (stereo partly specified) ?
**A:** 42 min

====

Target: C-C chemokine receptor type 5 (Homo sapiens)
Sequence (P51681 whole entry): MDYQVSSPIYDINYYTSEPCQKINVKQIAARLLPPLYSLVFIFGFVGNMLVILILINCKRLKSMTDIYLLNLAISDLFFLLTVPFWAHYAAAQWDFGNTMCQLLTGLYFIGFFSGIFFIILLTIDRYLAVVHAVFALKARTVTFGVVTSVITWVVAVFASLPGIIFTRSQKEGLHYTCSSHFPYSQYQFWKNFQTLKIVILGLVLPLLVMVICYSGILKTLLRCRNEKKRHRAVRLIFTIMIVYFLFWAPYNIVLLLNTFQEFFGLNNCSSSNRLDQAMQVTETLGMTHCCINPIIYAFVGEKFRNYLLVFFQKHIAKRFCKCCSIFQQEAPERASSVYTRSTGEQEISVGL
Simple rule here: IC50 less than 200 nM is met, otherwise not met.

// known answers, use as guide
- CN(CC(CCN1CCC(c2ccccc2)CC1)c1cccs1)S(=O)(=O)c1ccccc1 (configuration not stated): not met
- CN(CC(CCN1CCC2(CC1)C[S+]([O-])c1ccccc12)c1ccsc1)S(=O)(=O)c1ccccc1 (configuration not stated): met
- Cc1cc(C)cc(C(CCN2CCC(c3ccccc3)CC2)CN(C)S(=O)(=O)c2ccccc2)c1 (configuration not stated): met
- CN(C[C@@H](CCN1CCC(c2ccccc2)CC1)c1ccc2c(c1)OCO2)S(=O)(=O)c1ccccc1: not met
- Cc1cc(C(CCN2CCC(c3ccccc3)CC2)CN(C)S(=O)(=O)c2ccccc2)ccc1F (configuration not stated): met

Could you now consider this next compound?
**Q:** In the record for CN(CC(CCN1CCC(c2ccccc2)CC1)c1ccc2ccccc2c1)S(=O)(=O)c1ccccc1 (configuration not stated) , is IC50 less than 200 nM?
**A:** not met
